experiment: Solubility study of Form A in buffers, water and biorelevant media (suspension shaken 24 hours at 25° C., filtrate by UPLC); format: physicochemical; details: pH 1.0 buffer, 25 °C, pH 1, aqueous buffer, thermodynamic from solid, about 24 hours, individual replicate
property.measured: solubility at 24 h

{"compound": "Cc1cc(N2CC3CCC(C2)C3Nc2nc3n(n2)CCCC[C@H]3c2ccc(F)c(F)c2F)ncn1 (stereo partly shown) [Form A]", "result": "> 10000 µg/mL"}

====

test: Solubility study of Form A in buffers, water and biorelevant media (suspension shaken 24 hours at 25° C., filtrate by UPLC); type: physicochemical; conditions: pH 5.0 buffer, 25 °C, pH 5, aqueous buffer, thermodynamic from solid, about 24 hours, individual replicate

{"molecule": "Cc1cc(N2CC3CCC(C2)C3Nc2nc3n(n2)CCCC[C@H]3c2ccc(F)c(F)c2F)ncn1 (stereo partly shown) [Form A]", "solubility at 24 h / µg/mL": 91}
